Entry source: paper PMC7848861

# method: Half-life of Angie1 in human serum
# Assay type: in vitro ADME
# study-conditions: human serum (Lonza 14-490E) spiked with 10 μM, 37°C, aliquots 5–120 min, LC-MS (Orbitrap Elite) signal area, triplicates, GraphPad Prism
Peptide text beside a SMILES is read from it.
observed-property: half-life at 10 μM (min)
Record the value in min, omitting the unit from your answer.

**Q:** Look up and state reported half-life at 10 μM for CC[C@H](C)[C@H](NC(=O)[C@H](C)NC(=O)[C@H](CCCCN)NC(=O)[C@@H](NC(=O)[C@H](CO)NC(=O)[C@@H](NC(=O)[C@H](CCCCN)NC(=O)[C@H](CC(N)=O)NC(=O)CNC(=O)[C@H](Cc1c[nH]cn1)NC(=O)[C@@H](NC(=O)[C@H](Cc1ccccc1)NC(=O)[C@@H](NC(=O)[C@H](CC(N)=O)NC(=O)[C@@H](NC(=O)[C@H](C)NC(=O)[C@@H](N)CCCCN)[C@@H](C)CC)[C@@H](C)O)[C@@H](C)CC)[C@@H](C)CC)[C@@H](C)CC)C(=O)O [Angie1] (H-KAINTFIHGNKISIKAI-OH)
**A:** 3.06
